This collection of values is drawn from PubChem BioAssay AID662.

Assay: Cell signaling CRE-BLA (Fsk stim)
Details: CHO CRE-bla reporter (cAMP response element driving beta-lactamase), forskolin EC10, beta-lactamase ratio; series mostly up to 38.2 µM
Among all 71,000 compounds or so, about 1,800 (2.5%) were called active. Inconclusive results (about 26%) are left out. Calls follow the shape of the dose curve; as a rule, active = well fitted activation curve with a large enough effect in the signal ratio, with a control signal flat (not every such curve was filed as active); inconclusive = small, poorly fitted or top-dose-only effect, or effect the other way, or a change in a side signal; inactive = flat fitted curve, though single readings scatter; the % refers to the signal ratio. For the sample, actives were picked, then their nearest neighbours and some compounds at random.
Labels: 1 (yes) (active), 0 (no) (inactive)

- compound: "CCc1nc(Nc2ccc3nccnc3c2)c2oc3ccccc3c2n1"
  groupLabel: "1 (yes)"
- compound: "COc1ccccc1Nc1ncnc2c1oc1ccccc12"
  groupLabel: "0 (no)"
- compound: "COc1ccc(-n2nnc3c(=O)n(CC(=O)N4CCC(Cc5ccccc5)CC4)cnc32)cc1"
  groupLabel: "0 (no)"
- compound: "Cn1c(=O)[nH]c(=O)c2c1nc(Br)n2CCCCSc1nc2ccccc2o1"
  groupLabel: "1 (yes)"
- compound: "CCCC[C@@H]1C[C@H]1C(NC(=O)c1ccco1)c1ccc(C(=O)OC)cc1 (stereo partly specified)"
  groupLabel: "0 (no)"
- compound: "COC(=O)c1ccc(S(=O)(=O)c2ccc(C(=O)OC)s2)s1"
  groupLabel: "0 (no)"
- compound: "Cn1c(=O)[nH]c(=O)c2c1nc(N1CCCCCC1)n2CC(=O)c1ccccc1"
  groupLabel: "0 (no)"
- compound: "CC1CCN(c2nc3c(c(=O)[nH]c(=O)n3C)n2CCCc2ccccc2)CC1"
  groupLabel: "0 (no)"
- compound: "CCOC(=O)C1CCc2nc3ccccc3c(=O)n21 (stereo unspecified)"
  groupLabel: "0 (no)"
- compound: "COC(=O)C1=C(C)NC(=O)NC1/C=C/c1ccccc1 (stereo unspecified)"
  groupLabel: "0 (no)"
- compound: "O=C(C1CCN(CC2CCCCC2)CC1)N1CCCC1"
  groupLabel: "0 (no)"
